- Tested on: OVCAR-8 ovarian
- test-summary: NCI-60 one-dose screen, 48 h
- settings: 10 µM
Compounds without any hit were thinned out: in the full panel of roughly 83,000, 20% have a hit. Active and inactive are the calls of the source. The calls were made as follows: active = growth percent below 10; inactive = the rest.
I would appreciate it if you answered using one of these outcomes: active, inactive

Query :: Could you check what this test reported for `O=S(=O)(c1ccc(Cl)cc1)c1nc(-c2ccccc2)oc1S(=O)(=O)c1ccc(Cl)cc1` ?
Result :: inactive

Query :: Could you check what this test reported for `COc1ccc2[nH]c(=O)c(CSc3nccc(-c4ccc(Cl)cc4)n3)cc2c1` ?
Result :: active

Query :: Could you check what this test reported for `CN(C(=O)c1ccc(C(F)(F)F)cc1C(F)(F)F)c1sc2c(c1C#N)CCC(=O)C2` ?
Result :: inactive

Query :: Could you check what this test reported for `CNCc1cccc2c1OCCCCCC[C@@](C)(O)CC1(CC1)S(=O)(=O)c1ccc(cc1)-c1cnc(N)c(n1)C(=O)N2` ?
Result :: active

Query :: Could you check what this test reported for `CN1CCO/C1=C(/NC(=O)c1ccc(Cl)cc1)[P+](c1ccccc1)(c1ccccc1)c1ccccc1` ?
Result :: inactive

Query :: Could you check what this test reported for OCc1[nH]nc2cc(Nc3ncc4ccc(Br)c(OC5CCC(O)CC5)c4n3)ccc12 (stereo not drawn) ?
Result :: active

Query :: Could you check what this test reported for `N#Cc1c(NC(=O)c2ccc(C(F)(F)F)cc2)sc2c1CCC(O)=C2` ?
Result :: inactive

Query :: Could you check what this test reported for `Nc1nc(Nc2ccc(Cl)cc2)nn1Cc1cccc(Br)c1` ?
Result :: inactive

Query :: Could you check what this test reported for `CCN1CCN(c2ccc(NC(=O)Nc3ccc(-c4cc(C(=O)NC)c5ncccc5n4)cc3)cc2C(F)(F)F)CC1` ?
Result :: active

Query :: Could you check what this test reported for `COc1ccc(OC)c(/C=N/NC(=O)c2ccc3nc(-c4ccc(Cl)cc4)[nH]c3c2)c1` ?
Result :: inactive

Query :: Could you check what this test reported for `COc1cc(Cn2c(C(F)(F)F)cc3c(Cl)ncnc32)ccn1` ?
Result :: active

Query :: Could you check what this test reported for `COc1ccc(C(=O)Nc2ccc(-c3ccc4c(c3)NC(=O)/C4=C\c3ccc[nH]3)cc2)cc1` ?
Result :: active

Query :: Could you check what this test reported for `CN1CCc2c(sc3ncnc(N/N=C/c4ccc5ccccc5c4)c23)C1` ?
Result :: inactive

Query :: Could you check what this test reported for `O=C(Nc1ccc(OCc2ccccc2)cc1)Nc1ccc(Cl)c(C(F)(F)F)c1` ?
Result :: active

Query :: Could you check what this test reported for `COc1ccc(-c2cc(C(=O)N=Nc3c(O)[nH]c4ccccc34)c3ccccc3n2)cc1` ?
Result :: active

Query :: Could you check what this test reported for `C/C(=C\CC/C=C(\C)CC/C=C(\C)CC[C@@H](O)C(C)(C)O)CC/C=C(\C)CC[C@@H](O)C(C)(C)O` ?
Result :: inactive

Query :: Could you check what this test reported for `O=C(CSc1nnc(-c2ccc3nc(-c4ccccc4)[nH]c3c2)o1)Nc1ccc(Br)cc1` ?
Result :: inactive

Query :: Could you check what this test reported for `CN1CCN(c2ccc(C(=O)/C=C/c3ccc(OC(F)F)cc3)cc2)CC1` ?
Result :: inactive

Query :: Could you check what this test reported for `CN1CCN(c2ccc(Nc3nc(N4CCN(S(=O)(=O)c5ccc(F)cc5)CC4)c4sccc4n3)cc2)CC1` ?
Result :: active

Query :: Could you check what this test reported for `Cc1ccc(-c2cc(-c3cc4ccccc4nc3Cl)[nH]c(=O)n2)cc1` ?
Result :: active

Query :: Could you check what this test reported for `CC(=O)Nc1ccc(-n2cnc3cc(-c4ccc(O)cc4)ccc32)cc1F` ?
Result :: inactive

Query :: Could you check what this test reported for `CC(=O)Oc1ccccc1C(=O)Oc1ccc(C(=O)/C=C/c2ccncc2)cc1` ?
Result :: inactive

Query :: Could you check what this test reported for `COc1ccc(-c2ccc(/C=N/NC(=O)c3[nH]c4ccc(Br)cc4c3-c3ccccc3)s2)cc1` ?
Result :: inactive

Query :: Could you check what this test reported for `Brc1ccc(N/N=C/c2c[nH]c3ccccc23)nc1` ?
Result :: inactive

Query :: Could you check what this test reported for `O=C(CSc1nnc(-c2c[nH]c3ccccc23)n1-c1ccccc1)c1ccc(Br)cc1` ?
Result :: inactive

Query :: Could you check what this test reported for `COc1ccc(N(C)c2cc(C#N)nc3ccccc23)cc1N` ?
Result :: inactive

Query :: Could you check what this test reported for `COc1ccc(-c2ccc(SCC(=O)Nc3ccc(C#N)cc3)nn2)cc1` ?
Result :: inactive

Query :: Could you check what this test reported for `O=C(COc1ccc(NC(=O)Nc2ccc(Cl)cc2)cc1)N=Nc1c(O)[nH]c2ccc([N+](=O)[O-])cc12` ?
Result :: inactive

Query :: Could you check what this test reported for `O=C(O)CCCCCCCCCCN1C(=O)/C(=C/c2cnc(-c3ccccc3)s2)SC1=S` ?
Result :: inactive

Query :: Could you check what this test reported for `COc1ccc(C=CC(=O)c2ccc(-n3c(C)nc4c(cnn4-c4ccccc4)c3=O)cc2)cc1` ?
Result :: inactive

Query :: Could you check what this test reported for `CC(=O)Nc1ccc(-c2cn(-c3cccc(C(=O)Nc4cc(C(F)(F)F)cc(C(F)(F)F)c4)c3)nn2)cn1` ?
Result :: active

Query :: Could you check what this test reported for CCOC(=O)C1=C(N)N(c2ccc(C)cc2)C2=C(C(=O)CC(C)(C)C2)C1c1ccccc1OC (stereo not drawn) ?
Result :: inactive

Query :: Could you check what this test reported for `Cc1nn(-c2ccccc2)c2ncn(CC(=O)N/N=C/c3c[nH]c4ccccc34)c(=O)c12` ?
Result :: inactive

Query :: Could you check what this test reported for `CC(=O)NNc1ccc2nnc(-c3ccc(Br)cc3)n2n1` ?
Result :: inactive

Query :: Could you check what this test reported for `O=C(Nc1cccc([N+](=O)[O-])c1)Nc1cccc([N+](=O)[O-])c1` ?
Result :: inactive

Query :: Could you check what this test reported for `O=C(Nc1ccc(Cl)c(C(F)(F)F)c1)c1cncc(C#Cc2cnc3ccc(N4CCOCC4)nn23)c1` ?
Result :: active

Query :: Could you check what this test reported for `Cc1ccc2nc(COc3ccc(C(=O)NNC(=S)NC(=O)c4ccccc4)cc3)[nH]c2c1` ?
Result :: inactive

Query :: Could you check what this test reported for `COc1ccc(C(=O)/C=C/c2ccc(Cl)c(C(F)(F)F)c2)cc1S(N)(=O)=O` ?
Result :: active
